Cited source: a polymer gas permeability compilation

PARAMETER MEASURED: CH4 permeability (Barrer)

[A] *Nc1ccc(S(=O)(=O)c2ccc(NC(=O)c3cccc(C(*)=O)c3)cc2)cc1 (repeat unit)
[B] *C(=C(*)c1ccc2c(c1)C(C)(C)CC2(C)C)c1ccc(C)cc1 (repeat unit)
[C] *c1cc(C(=O)OCCC(F)(F)C(F)(F)C(F)(F)C(F)(F)C(F)(F)C(F)(F)F)cc(N2C(=O)c3ccc(C(=O)c4ccc5c(c4)C(=O)N(*)C5=O)cc3C2=O)c1 (repeat unit)
# ascending order, key=CH4 permeability Answer by naming the labels in the order asked.
A, C, B

====

PARAMETER MEASURED: N2 permeability (Barrer)

Here's what some known entries look like.
Quick check: N2 permeability of *Oc1ccc(-c2c(-c3ccccc3)c(-c3ccccc3)c(-c3ccc4c(c3)Oc3c(C#N)c(*)c(*)c(C#N)c3O4)c(-c3ccccc3)c2-c2ccccc2)cc1O* (repeat unit) ?
107

Quick check: N2 permeability of *=CC1CCC(C=*)C1 (repeat unit) ?
1.5

Quick check: N2 permeability of *Oc1ccc(Oc2ccc(C(=O)c3ccc(*)cc3)cc2)c(-c2cccc(C)c2)c1 (repeat unit) ?
0.029

Quick check: N2 permeability of *Oc1ccc(Oc2ccc(Oc3ccc(S(=O)(=O)c4ccc(*)cc4)cc3)cc2)cc1 (repeat unit) ?
0.196

Quick check: N2 permeability of *c1ccc(-c2ccc(Oc3ccc(C4(c5ccc(Oc6ccc(-c7ccc(N8C(=O)c9ccc(Oc%10ccc(C(C)(C)c%11ccc(Oc%12ccc%13c(c%12)C(=O)N(*)C%13=O)cc%11)cc%10)cc9C8=O)cc7)cc6C(F)(F)F)cc5)c5ccccc5C(=O)N4c4ccccc4)cc3)c(C(F)(F)F)c2)cc1 (repeat unit) ?
0.95

Quick check: N2 permeability of *c1ccc(Cc2ccc(N3C(=O)c4ccc(-c5ccc6c(c5)C(=O)N(*)C6=O)cc4C3=O)cc2Cl)c(Cl)c1 (repeat unit) ?
0.0107

Quick check: N2 permeability of *OC(=O)Oc1ccc(C(=C(Cl)Cl)c2ccc(*)cc2)cc1 (repeat unit) ?
0.26

Quick check: N2 permeability of *Nc1ccc(C(=O)c2ccc(NC(=O)c3cc(C(*)=O)cc(C(C)(C)C)c3)cc2)cc1 (repeat unit) ?
0.23

Quick check: N2 permeability of *CC[Si](C)(C)c1ccc([Si](*)(C)C)cc1 (repeat unit) ?
0.257

Quick check: N2 permeability of *Cc1cc(Cl)c(C*)cc1Cl (repeat unit) ?
0.0271

[I] *c1ccc(Oc2ccc(N3C(=O)c4ccc(C(=O)c5ccc6c(c5)C(=O)N(*)C6=O)cc4C3=O)cc2)cc1 (repeat unit)
[II] *OC(=O)Oc1ccc(C2(c3ccc(*)cc3)CC3CCC2C3)cc1 (repeat unit)
[III] *c1cc(C(=O)OCCC(F)(F)C(F)(F)C(F)(F)C(F)(F)C(F)(F)C(F)(F)F)cc(N2C(=O)c3ccc(C(=O)c4ccc5c(c4)C(=O)N(*)C5=O)cc3C2=O)c1 (repeat unit)
[IV] *C(=C(*)c1ccc2c(c1)C(C)(C)c1ccccc1-2)c1ccc(F)c(F)c1 (repeat unit)
[V] *Nc1ccc(S(=O)(=O)c2ccc(NC(=O)c3cccc(C(*)=O)c3)cc2)cc1 (repeat unit)
Arrange the 5 compounds from largest to smallest N2 permeability. Answer by naming the labels in the order asked.
IV, III, II, V, I
